# Tested on: Escherichia coli TOP10
# PROTOCOL_DETAILS: shrunken log2 fold change of peptide-encoding DNA abundance (4.5 h post-induction vs induction); higher = less antimicrobial activity (less host growth inhibition)
# CONDITION_SET: time post-induction: 4.5 h; library: site-saturation at positions 5, 18, 19, 20
Reported shrunken log2 fold change values for a set of sequences
Quick one: just the number, no unit, thanks!

Before answering, review these 6 worked examples.
RRIRIRPPRLPRPRPRPTMMPRP : -0.0891
RRIRYRPPRLPRPRPRPHFNPRP : -1.23
RRIRMRPPRLPRPRPRPQIVPRP : -0.163
RRIRYRPPRLPRPRPRPATQPRP : -0.163
RRIRSRPPRLPRPRPRPRQGPRP : 0.185
RRIRYRPPRLPRPRPRPGQLPRP : -0.284

Name the reported shrunken log2 fold change value associated with the sequence `RRIRQRPPRLPRPRPRPEFNPRP`
-0.0823

Name the reported shrunken log2 fold change value associated with the sequence `RRIRIRPPRLPRPRPRPYEKPRP`
-0.352

Name the reported shrunken log2 fold change value associated with the sequence `RRIRPRPPRLPRPRPRPDGFPRP`
-0.0011

Name the reported shrunken log2 fold change value associated with the sequence `RRIRHRPPRLPRPRPRPKADPRP`
0.117

---

Reported shrunken log2 fold change values for a set of sequences
# Test system: Escherichia coli TOP10
# PROTOCOL_DETAILS: shrunken log2 fold change of peptide-encoding DNA abundance (4.5 h post-induction vs induction); higher = less antimicrobial activity (less host growth inhibition)
# CONDITION_SET: time post-induction: 4.5 h; library: site-saturation at positions 5, 18, 19, 20
Quick one: just the number, no unit, thanks!

Name the reported shrunken log2 fold change value associated with the sequence `RRIRNRPPRLPRPRPRPPKFPRP`
-0.0082

Name the reported shrunken log2 fold change value associated with the sequence `RRIRVRPPRLPRPRPRPSKEPRP`
-0.263

Name the reported shrunken log2 fold change value associated with the sequence `RRIRLRPPRLPRPRPRPHSAPRP`
-0.202

Name the reported shrunken log2 fold change value associated with the sequence `RRIRWRPPRLPRPRPRPYCVPRP`
-0.521

Name the reported shrunken log2 fold change value associated with the sequence `RRIRDRPPRLPRPRPRPFFDPRP`
0.266

Name the reported shrunken log2 fold change value associated with the sequence `RRIRARPPRLPRPRPRPTYNPRP`
-0.121

Name the reported shrunken log2 fold change value associated with the sequence `RRIRLRPPRLPRPRPRPAMWPRP`
0.373

---

Reported shrunken log2 fold change values for a set of sequences
# Tested on: Escherichia coli TOP10
# PROTOCOL_DETAILS: shrunken log2 fold change of peptide-encoding DNA abundance (4.5 h post-induction vs induction); higher = less antimicrobial activity (less host growth inhibition)
# CONDITION_SET: time post-induction: 4.5 h; library: site-saturation at positions 5, 18, 19, 20
Quick one: just the number, no unit, thanks!

RRIRNRPPRLPRPRPRPFIFPRP : -0.373

Now, please, on to the next sequence.
// map `RRIRKRPPRLPRPRPRPSGIPRP` to recorded shrunken log2 fold change (system: Escherichia coli TOP10)
0.149

---

# Test system: Escherichia coli TOP10
# PROTOCOL_DETAILS: shrunken log2 fold change of peptide-encoding DNA abundance (4.5 h post-induction vs induction); higher = less antimicrobial activity (less host growth inhibition)
# CONDITION_SET: time post-induction: 4.5 h; library: site-saturation at positions 5, 18, 19, 20
Category scheme (shrunken log2 fold change): band 1 = under -0.07, band 2 = from -0.07 up to 0.01, band 3 = 0.01 and over

Would you please look over these solved cases?
RRIRIRPPRLPRPRPRPHCCPRP : band 1
RRIRMRPPRLPRPRPRPACPPRP : band 3

Band for the recorded shrunken log2 fold change of `RRIRMRPPRLPRPRPRPVECPRP` ?
band 1

Band for the recorded shrunken log2 fold change of `RRIRNRPPRLPRPRPRPDKRPRP` ?
band 2

Band for the recorded shrunken log2 fold change of `RRIRLRPPRLPRPRPRPYCSPRP` ?
band 2

---

# System: Escherichia coli TOP10
# PROTOCOL_DETAILS: shrunken log2 fold change of peptide-encoding DNA abundance (4.5 h post-induction vs induction); higher = less antimicrobial activity (less host growth inhibition)
# CONDITION_SET: time post-induction: 4.5 h; library: site-saturation at positions 5, 18, 19, 20
TEST_READOUT: shrunken log2 fold change

Before answering, review these 8 worked examples.
RRIRRRPPRLPRPRPRPWNLPRP : -0.269
RRIRRRPPRLPRPRPRPMEMPRP : -0.0817
RRIRWRPPRLPRPRPRPRQRPRP : 0.957
RRIRERPPRLPRPRPRPHAWPRP : 0.146
RRIRQRPPRLPRPRPRPLYVPRP : -0.307
RRIRDRPPRLPRPRPRPWMTPRP : -0.29
RRIRKRPPRLPRPRPRPFVSPRP : -0.176
RRIRFRPPRLPRPRPRPFKMPRP : 1.77

Name the reported shrunken log2 fold change value associated with the sequence `RRIRSRPPRLPRPRPRPAHKPRP`
-0.152

Name the reported shrunken log2 fold change value associated with the sequence `RRIRDRPPRLPRPRPRPDDKPRP`
0.0802

Name the reported shrunken log2 fold change value associated with the sequence `RRIRIRPPRLPRPRPRPFAVPRP`
0.0425

Name the reported shrunken log2 fold change value associated with the sequence `RRIRRRPPRLPRPRPRPMPEPRP`
0.124

Name the reported shrunken log2 fold change value associated with the sequence `RRIRYRPPRLPRPRPRPRYEPRP`
-0.415

Name the reported shrunken log2 fold change value associated with the sequence `RRIRIRPPRLPRPRPRPDIGPRP`
-0.251

Name the reported shrunken log2 fold change value associated with the sequence `RRIRERPPRLPRPRPRPMEKPRP`
-0.0775

Name the reported shrunken log2 fold change value associated with the sequence `RRIRERPPRLPRPRPRPNTPPRP`
0.0861

Name the reported shrunken log2 fold change value associated with the sequence `RRIRDRPPRLPRPRPRPVPMPRP`
0.115

Name the reported shrunken log2 fold change value associated with the sequence `RRIRYRPPRLPRPRPRPCQKPRP`
-0.0134

Name the reported shrunken log2 fold change value associated with the sequence `RRIRFRPPRLPRPRPRPTKMPRP`
0.0196

Name the reported shrunken log2 fold change value associated with the sequence `RRIRWRPPRLPRPRPRPNEFPRP`
-0.161

---

# System: Escherichia coli TOP10
# PROTOCOL_DETAILS: shrunken log2 fold change of peptide-encoding DNA abundance (4.5 h post-induction vs induction); higher = less antimicrobial activity (less host growth inhibition)
# CONDITION_SET: time post-induction: 4.5 h; library: site-saturation at positions 5, 18, 19, 20
TEST_READOUT: shrunken log2 fold change
Quick one: just the number, no unit, thanks!

Before answering, review these 3 worked examples.
RRIRERPPRLPRPRPRPQHPPRP : -0.367
RRIRSRPPRLPRPRPRPTWDPRP : 0.53
RRIRRRPPRLPRPRPRPGCVPRP : 0.329

Name the reported shrunken log2 fold change value associated with the sequence `RRIRQRPPRLPRPRPRPNENPRP`
-0.0578

Name the reported shrunken log2 fold change value associated with the sequence `RRIRRRPPRLPRPRPRPYEFPRP`
-0.187

Name the reported shrunken log2 fold change value associated with the sequence `RRIRVRPPRLPRPRPRPGYPPRP`
-0.343

Name the reported shrunken log2 fold change value associated with the sequence `RRIRIRPPRLPRPRPRPNAHPRP`
-0.0997

---

# System: Escherichia coli TOP10;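 note: peptides expressed intracellularly from a pBAD plasmid library in pooled LB shake-flask culture, induced with 0.3% L-arabinose, DNA abundance read by NGS, three biological replicates, DESeq2 with apeglm shrinkage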
# PROTOCOL_DETAILS: shrunken log2 fold change of peptide-encoding DNA abundance (4.5 h post-induction vs induction); higher = less antimicrobial activity (less host growth inhibition)
# CONDITION_SET: time post-induction: 4.5 h; library: site-saturation at positions 5, 18, 19, 20
Lab note: compare shrunken log2 fold change against -0.03. Equal or greater, write met. Smaller, write not met.

RRIRWRPPRLPRPRPRPDFPPRP : not met
RRIRFRPPRLPRPRPRPNVTPRP : not met
RRIRKRPPRLPRPRPRPENCPRP : met
RRIRPRPPRLPRPRPRPFRYPRP : not met
RRIRWRPPRLPRPRPRPPHWPRP : met

State whether the measured shrunken log2 fold change reaches -0.03, counting equality as reaching it, for `RRIRSRPPRLPRPRPRPHYMPRP`
not met

State whether the measured shrunken log2 fold change reaches -0.03, counting equality as reaching it, for `RRIRYRPPRLPRPRPRPQQCPRP`
not met

State whether the measured shrunken log2 fold change reaches -0.03, counting equality as reaching it, for `RRIRNRPPRLPRPRPRPMVGPRP`
not met

State whether the measured shrunken log2 fold change reaches -0.03, counting equality as reaching it, for `RRIRTRPPRLPRPRPRPQENPRP`
not met

State whether the measured shrunken log2 fold change reaches -0.03, counting equality as reaching it, for `RRIRPRPPRLPRPRPRPPTAPRP`
met

// data source = the supplement of paper PMC9112550
